targetDesc: T1, ApoE4 amino acids 1-210, expressed on yeast (human, UniProt P02649 19-228)
T1 construct: with myc tag, on yeast cells; range counts on the mature protein; also called N terminal domain; not shown: myc tag and yeast surface-display partner
T1 chain: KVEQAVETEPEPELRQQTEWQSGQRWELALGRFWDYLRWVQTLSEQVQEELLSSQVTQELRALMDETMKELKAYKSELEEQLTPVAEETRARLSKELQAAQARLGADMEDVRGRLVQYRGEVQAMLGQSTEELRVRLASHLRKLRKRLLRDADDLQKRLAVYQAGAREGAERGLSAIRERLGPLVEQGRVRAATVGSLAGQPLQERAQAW
measurementProtocol: yeast display of myc-tagged ApoE4 fragment, antibody staining
observationType: binding result

HJ159 (antibody, V domains shown, murine monoclonal antibody from hybridoma) VH: QVQLQQSGPDLVKPGASVKISCKASGYTFIDYYINWAKQRPGQGLEWIGWIFPGSGSTYYNEKFKGKATLTVDKSSSTAYMFLSSLTSEDSAVFFCARYYGSSPFAYWGQGTLVTVSA VL: DVLMTQTPLSLPVSLGDQASISCRSSQNIVYSNGNTYLEWYLQKPGQSPKLLIYKVSNRFSGVPDRFSGSGSGTYFTLKISRVEAEDLGIYYCFQGSHVPYTFGGGTKLEIKR = binds
HJ1526 (antibody, V domains shown, murine monoclonal antibody from hybridoma) VH: QVQLQQPGTALVKPGASVKLSCKSSGYTFTDYWVHWVKQRPGQGLEWIGNINPRNGGINYNENFKGKAILTVDRSFSIAYMQLNSLTSEDSAVYYCARPGATVVHRTPWFAHWGQGTLVTVSA VL: EIVLTQSPALMAASPGEKVTITCSVSSSISSSNLHWFQQKSETSPKPWIFGTSYLASGVPVRFSGSGSGTSYSLTISSMEAEDAATYYCQQWNSYPLTFGAGTKLELR = binds
HJ1513 (antibody, V domains shown, murine monoclonal antibody from hybridoma) VH: QIQLQQSGPELVKPGASVKISCKASGYTFTDYYINWVRQRPGQGLEWIGWIYPESFNTYYNEKFKGKATLTVDTSSNTAYMQLSSLTSEDSAVYFCARYYVSSPFAYWGQGTLVTVSA VL: DVLMTQTPLSLPVSLGDQASISCRSSQNIIHSNGNTYLEWFLQKPGQSPKLLIYKVSNRFSGVPDRFSGSGSGTDFTLKISRVEAEDLGVYYCFQGSHVPYTFGGGTKLEIKR = binds
